This collection of values is drawn from patent US20260250290A1.

# TESTED ON: full length SGK1 (Homo sapiens, UniProt O00141)
# Construct: 125 μM full length SGK1 (Life Technologies Part #PR7358A); purchased Life Technologies PR7358A
# Sequence (O00141 whole entry): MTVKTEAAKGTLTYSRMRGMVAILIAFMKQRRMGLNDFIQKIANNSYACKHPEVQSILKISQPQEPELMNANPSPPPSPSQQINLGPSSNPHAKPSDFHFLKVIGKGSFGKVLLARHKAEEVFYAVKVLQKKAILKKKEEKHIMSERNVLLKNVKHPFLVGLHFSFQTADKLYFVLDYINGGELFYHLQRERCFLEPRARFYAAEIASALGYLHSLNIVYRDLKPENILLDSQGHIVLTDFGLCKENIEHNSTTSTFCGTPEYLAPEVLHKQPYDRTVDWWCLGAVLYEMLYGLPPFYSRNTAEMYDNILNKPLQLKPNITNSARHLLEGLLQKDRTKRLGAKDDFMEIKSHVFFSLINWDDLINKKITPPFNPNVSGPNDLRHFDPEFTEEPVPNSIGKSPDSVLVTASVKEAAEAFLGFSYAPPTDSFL
# RUN DESCRIPTION: SGK1 inhibition Assay A (Caliper LabChip electrophoretic separation of fluorescent peptide substrate and phosphorylated product)
# Type: biochemical
# PARTICULARS: Assay A; 20 μM ATP, 40 min incubation; read-out: SGK1 IC50
Structures can show the parent of a compound that is named as a salt.
QUANTITY NAME: IC50 (nM)

>>> measurement("COC(=O)N1CC=C(c2cc(N3CCC[C@@H](NC(=O)c4sc(C(F)F)cc4OCCN4CCN(C)CC4)C3)c3c(N)ncnn23)C1")
9
>>> measurement("CN(C)CCOc1cc(Cl)sc1C(=O)N[C@@H]1CCCN(c2cc(C3=CCN(C(=O)C4CC4)C3)n3ncnc(N)c23)C1 [Example 177, TFA]")
5
>>> measurement("CS(=O)(=O)c1ccc(-c2cc(N3CCC[C@@H](NC(=O)c4ccc(Cl)s4)C3)c3c(N)ncnn23)cc1")
3
>>> measurement("N#Cc1ccc(-c2cc(N3CCC[C@@H](NC(=O)c4sc(C(F)F)cc4C4CCNC4)C3)c3c(N)ncnn23)cn1 (some centres unmarked)")
299
>>> measurement("CC(=O)N1CC=C(c2cc(N3CCC[C@@H](NC(=O)c4sc(Cl)cc4OC4CN(CCO)C4)C3)c3c(N)ncnn23)C1")
17
>>> measurement("CC(C)(C)OC(=O)N[C@@H]1CCCCN(c2cc(-c3ccc(S(C)(=O)=O)cc3)n3ncnc(N)c23)C1")
3400
>>> measurement("COC(=O)N1CC=C(c2cc(N3CCC[C@@H](NC(=O)c4sc(Cl)cc4OC4CNC4)C3)c3c(N)ncnn23)C1")
5
>>> measurement("CN1CCN(c2cccc(C(=O)N[C@@H]3CCCN(c4cc(-c5ccc(-n6cncn6)nc5)n5ncnc(N)c45)C3)n2)CC1")
17
>>> measurement("CN(C)CCOc1cc(C(F)F)sc1C(=O)N[C@@H]1CCCN(c2cc(-c3ccc(=O)n(CC(F)F)c3)n3ncnc(N)c23)C1")
17
>>> measurement("COc1ccc(-n2cc(OCCN(C)C)c(C(=O)N[C@@H]3CCCN(c4cc(-c5ccc(C#N)nc5)n5ncnc(N)c45)C3)n2)cc1")
151
>>> measurement("N#Cc1ccc(-c2cc(N3CCC[C@@H](NC(=O)c4cc5ccccc5[nH]4)C3)c3c(N)ncnn23)cn1")
21
>>> measurement("CS(=O)(=O)c1ccc(-c2cc(N3CCC[C@@H](NC(=O)c4cccnc4)C3)c3c(N)ncnn23)cc1 [Example 50, TFA]")
69
>>> measurement("CN(C)CCOc1cc(C2CC2)sc1C(=O)N[C@@H]1CCCN(c2cc(-c3ccc(C(N)=O)c(F)c3)n3ncnc(N)c23)C1")
2
>>> measurement("CC(=O)N1CC=C(c2cc(N3CCC[C@@H](NC(=O)c4sc(-c5ccnc(F)c5)cc4OCCN(C)C)C3)c3c(N)ncnn23)C1")
6
>>> measurement("Nc1ncnn2c(-c3ccnc4[nH]ccc34)cc(N3CCC[C@@H](NC(=O)c4ccc(Cl)s4)C3)c12 [Example 205, TFA]")
7
>>> measurement("Cc1cnc(C(=O)N[C@@H]2CCCN(c3cc(-c4ccc(S(C)(=O)=O)cc4)n4ncnc(N)c34)C2)s1")
21
>>> measurement("CC(=O)N1CC=C(c2cc(N3CCC[C@@H](NC(=O)c4sc5ccc(C#N)cc5c4OC4CCNCC4)C3)c3c(N)ncnn23)C1")
35
>>> measurement("CC1CC1C(=O)N1CC=C(c2cc(N3CCC[C@@H](NC(=O)c4sc(Cl)cc4OCCN4CCOCC4)C3)c3c(N)ncnn23)C1 (some centres unmarked)")
18
>>> measurement("COc1cnccc1C(=O)N[C@@H]1CCCN(c2cc(-c3ccc(S(C)(=O)=O)cc3)n3ncnc(N)c23)C1")
287
>>> measurement("Cc1cc(COCCN2CCOCC2)c(C(=O)N[C@@H]2CCCN(c3cc(-c4ccnc(F)c4)n4ncnc(N)c34)C2)s1 [Example 201, TFA]")
3
>>> measurement("COc1cccc(C(=O)N[C@@H]2CCCN(c3cc(C4=CCN(C(C)=O)C4)n4ncnc(N)c34)C2)n1")
22
>>> measurement("COC(=O)N1CC=C(c2cc(N3CCC[C@@H](NC(=O)c4sc(Cl)cc4OCCN(C)C)C3)c3c(N)ncnn23)CC1")
37
>>> measurement("Cc1nc(OCCN(C)C)c(C(=O)N[C@@H]2CCCN(c3cc(-c4ccc(C#N)nc4)n4ncnc(N)c34)C2)s1")
6
>>> measurement("COc1cccc(C(=O)N[C@@H]2CCCN(c3cc(-c4ccc(S(C)(=O)=O)cc4)n4ncnc(N)c34)C2)c1")
12
>>> measurement("CC(=O)N1CC=C(c2cc(N3CCCC(NC(=O)c4sc(Cl)cc4OCC4CCNC4)C3)c3c(N)ncnn23)C1 (single isomer, unassigned) [Example 639]")
4
>>> measurement("Cc1nc(OC2CCN(C)CC2)c(C(=O)N[C@@H]2CCCN(c3cc(-c4ccc(C#N)nc4)n4ncnc(N)c34)C2)s1")
19
